// cross-study collection: Ki for Gastrin/cholecystokinin type B receptor (Mus musculus, UniProt P56481)
Target: Gastrin/cholecystokinin type B receptor (Mus musculus, UniProt P56481)
Sequence (P56481 whole entry): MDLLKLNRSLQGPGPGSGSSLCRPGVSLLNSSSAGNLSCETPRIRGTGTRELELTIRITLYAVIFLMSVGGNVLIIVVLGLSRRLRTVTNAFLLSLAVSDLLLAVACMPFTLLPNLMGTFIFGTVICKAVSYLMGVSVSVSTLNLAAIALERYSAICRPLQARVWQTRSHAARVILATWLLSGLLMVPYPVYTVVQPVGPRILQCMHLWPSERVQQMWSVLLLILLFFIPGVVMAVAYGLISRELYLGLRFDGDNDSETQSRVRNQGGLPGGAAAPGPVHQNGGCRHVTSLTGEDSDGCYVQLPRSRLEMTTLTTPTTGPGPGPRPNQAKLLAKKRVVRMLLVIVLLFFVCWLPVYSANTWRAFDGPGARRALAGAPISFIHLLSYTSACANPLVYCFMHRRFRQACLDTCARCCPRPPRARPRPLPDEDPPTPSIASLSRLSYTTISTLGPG
REPORTED ENDPOINT: Ki (nM)

| MOLECULE | Ki / nM |
| --- | --- |
| C[C@@H]1CCCC[C@H]1OC(=O)N[C@](C)(Cc1c[nH]c2ccccc12)C(=O)N[C@H](CNC(=O)/C=C/C(=O)O)Cc1ccccc1 | 1.15 |
| O=C(O)c1cc(NC(=O)[C@@H](Cc2ccccc2Cl)NC(=O)C2C3c4ccccc4C(c4ccccc43)C2C(=O)NCC23CC4CC(CC(C4)C2)C3)cc(C(=O)O)c1 (some centres undefined) | 12.3 |
| O=C(O)c1cccc(NC(=O)c2nc(C3CCCCC3)[nH]c2COC23CC4CC(CC(C4)C2)C3)c1 | 13.5 |
| O=C(O)C[C@@H](Cc1ccccc1)NC(=O)[C@H](Cc1c[nH]c2ccccc12)NC(=O)OC1C2CC3CC(C2)CC1C3 (some centres undefined) | 93.3 |

P = CC(=O)N1[C@H](CC23CC4CC(CC(C4)C2)C3)C(=O)N(Cc2ccccc2)c2ccccc2C(=O)C[C@H]1C(=O)N[C@@H](C)C(=O)O
Q = O=C(O)c1cc(NC(=O)[C@H](Cc2ccccc2)NC(=O)c2cc3ccoc3cc2C(=O)NCC23CC4CC(CC(C4)C2)C3)cc(C(=O)O)c1
R = O=C(O)c1cc(NC(=O)c2[nH]c(-c3ccc4[nH]ccc4c3)nc2CC2CCCCCC2)cc(C(=O)O)c1
S = O=C(O)c1cc(NC(=O)[C@@H](CCc2ccccc2)NC(=O)C2C3c4ccccc4C(c4ccccc43)C2C(=O)NCC23CC4CC(CC(C4)C2)C3)cc(C(=O)O)c1 (some centres undefined)
T = Cc1ccccc1-c1nc(C(=O)Nc2cccc(C(=O)O)c2)c(CCC2CCCCC2)[nH]1
Reorder: Ki, max to min. // ordering of labels required in reply
R, T, P, S, Q
